Please go through the items and note down their Selectivity for Aurora B IC50-VEGFR2/IC50-Aurora B.
Subject of test: VEGFR2 (Homo sapiens)
Construct: purchased Carna 08-191
Sequence (P35968 790-1356 limits assumed): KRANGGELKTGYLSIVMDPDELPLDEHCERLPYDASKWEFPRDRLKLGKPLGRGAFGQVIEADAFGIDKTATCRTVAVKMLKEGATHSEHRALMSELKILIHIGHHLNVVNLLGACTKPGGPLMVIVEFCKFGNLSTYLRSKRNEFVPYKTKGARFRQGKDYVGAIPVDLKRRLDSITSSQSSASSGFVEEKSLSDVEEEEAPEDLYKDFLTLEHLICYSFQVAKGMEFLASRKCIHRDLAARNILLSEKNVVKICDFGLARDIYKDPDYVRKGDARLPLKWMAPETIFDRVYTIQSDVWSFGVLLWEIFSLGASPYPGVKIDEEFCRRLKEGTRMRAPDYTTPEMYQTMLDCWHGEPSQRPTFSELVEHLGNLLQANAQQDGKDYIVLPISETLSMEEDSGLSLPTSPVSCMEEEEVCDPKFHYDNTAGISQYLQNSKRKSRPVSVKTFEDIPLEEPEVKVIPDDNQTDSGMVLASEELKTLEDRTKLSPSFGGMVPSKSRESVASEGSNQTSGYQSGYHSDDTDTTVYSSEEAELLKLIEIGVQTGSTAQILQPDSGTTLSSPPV
Run description: HTRF KinEASE test against VEGFR2, reported as relative selectivity IC50-VEGFR2/IC50-Aurora B
Type: biochemical
Details: ratio of IC50 against VEGFR2 to IC50 against Aurora B
The reply should be a number, written without any unit.

Entry CCOc1cc(F)c2c(Oc3ccc4c(C(=O)Nc5ccccc5N)cccc4c3)ccnc2c1 [Compound I-17] has what Selectivity for Aurora B IC50-VEGFR2/IC50-Aurora B?
8.16

Queued: O=C(NC1CCCCC1)c1cccc2cc(Oc3ccnc4cc(OCCF)ccc34)ccc12 [Compound I-35]
9.55

Queued: COc1cc(F)c2c(Oc3ccc4c(C(=O)Nc5ccc(F)c(Cl)c5N)cccc4c3)ccnc2c1 [Compound I-36]
7.75

Queued: CCOc1ccc2c(Oc3ccc4c(C(=O)Nc5ccc(F)cc5N)cccc4c3)ccnc2c1 [Compound I-5]
49.6

Queued: CCCCOc1ccc2c(Oc3ccc4c(C(=O)Nc5ccc(C)cc5N)cccc4c3)ccnc2c1 [Compound I-14]
18.84

Queued: CN(C)CCOc1ccc2c(Oc3ccc4c(C(=O)NC5CC(F)(F)C5)cccc4c3)ccnc2c1 [Compound I-42]
13.9

Queued: COc1ccc2c(Oc3ccc4c(C(=O)Nc5ccc(F)cc5N)cccc4c3)ccnc2c1 [Control molecule 02, reference compound]
4.16

Hey, just so you know, these numbers are from patent US20260216169A1.
